assay_details: Multiple-dose PK of intravenous Compound A in patients with NT1 (Cohorts B1, B2), plasma
Format: in vivo, human
experimental_conditions: human, plasma, intravenous, 11 mg; Day 1; read-out: AUCinf, Geo Mean
quantity_measured: AUC(0-inf) (ng·h/mL)
Numeric only. Scale: ng·h/mL

# query: AUC(0-inf) of entry COC(=O)N1CCC[C@H](NS(C)(=O)=O)[C@@H]1CO[C@H]1CC[C@@H](c2ccccc2)CC1 [Compound A]
166

* * *

assay_details: Single dose PK in patients with narcolepsy (Cohorts 5, 6 and 7), plasma
Format: in vivo, human
experimental_conditions: human, plasma, intravenous, 5 mg, Cmpd A 5 mg; Median; Cohort 5, 6, 7; read-out: Vss
quantity_measured: Vd (L)
Numeric only. Scale: L

# query: Vd of entry COC(=O)N1CCC[C@H](NS(C)(=O)=O)[C@@H]1CO[C@H]1CC[C@@H](c2ccccc2)CC1
110

* * *

assay_details: Single dose PK in healthy subjects (Cohorts 1, 2, S1 and S2), plasma
Assay type: in vivo, human
experimental_conditions: human, plasma, intravenous, 240 mg; 4 hr; read-out: Plasma concentration, Minimum
quantity_measured: concentration at 4 hr (ng/mL)
Numeric only. Scale: ng/mL

# query: concentration at 4 hr of entry COC(=O)N1CCC[C@H](NS(C)(=O)=O)[C@@H]1CO[C@H]1CC[C@@H](c2ccccc2)CC1
388

* * *

assay_details: Single dose PK in patients with narcolepsy (Cohorts 5, 6 and 7), plasma
Assay type: in vivo, human
experimental_conditions: human, plasma, iv, 5 mg; 9 hr; NT1, single 9 h IV infusion; read-out: Plasma concentration, Median
quantity_measured: concentration at 9 h (ng/mL)
Numeric only. Scale: ng/mL

# query: concentration at 9 h of entry COC(=O)N1CCC[C@H](NS(C)(=O)=O)[C@@H]1CO[C@H]1CC[C@@H](c2ccccc2)CC1
9.96

* * *

assay_details: Single dose PK in healthy subjects (Cohorts 1, 2, S1 and S2), plasma
Type: in vivo, human
experimental_conditions: human, plasma, iv, 240 mg, 240 mg single IV infusion, healthy subjects; read-out: tmax Median
quantity_measured: Tmax (h)
Numeric only. Scale: h

# query: Tmax of entry COC(=O)N1CCC[C@H](NS(C)(=O)=O)[C@@H]1CO[C@H]1CC[C@@H](c2ccccc2)CC1
4

* * *

assay_details: Single dose PK in healthy subjects (Cohorts 1, 2, S1 and S2), plasma
Format: in vivo, human
experimental_conditions: human, plasma, intravenous, 7 mg; 6 hr; read-out: Plasma concentration, Q1
quantity_measured: concentration at 6 hr (µg/mL)
Numeric only. Scale: µg/mL

# query: concentration at 6 hr of entry COC(=O)N1CCC[C@H](NS(C)(=O)=O)[C@@H]1CO[C@H]1CC[C@@H](c2ccccc2)CC1 [Compound A]
0.0114

* * *

assay_details: Multiple-dose PK of intravenous Compound A in patients with NT1 (Cohorts B1, B2), plasma
Type: in vivo, human
experimental_conditions: human, plasma, intravenous, 11 mg; Day 7; read-out: Cmax, Geo Mean
quantity_measured: Cmax at 7 days (ng/mL)
Numeric only. Scale: ng/mL

# query: Cmax at 7 days of entry COC(=O)N1CCC[C@H](NS(C)(=O)=O)[C@@H]1CO[C@H]1CC[C@@H](c2ccccc2)CC1 [Compound A]
20.5
